Taken from patent US20240132578A1.

- experimentalSystem: HIV-1 Env of isolate MGRM-C-028 (subtype C) (HIV-1)
- protocolNotes: cell-based or functional assay
Property: IC50 (µg/mL), pseudovirus neutralization; scope: individual binders
Only the number, expressed in µg/mL, is required.

Study these solved cases before continuing.
| binder | assayResult |
| --- | --- |
| PGT-127 (antibody, V domains shown) VH: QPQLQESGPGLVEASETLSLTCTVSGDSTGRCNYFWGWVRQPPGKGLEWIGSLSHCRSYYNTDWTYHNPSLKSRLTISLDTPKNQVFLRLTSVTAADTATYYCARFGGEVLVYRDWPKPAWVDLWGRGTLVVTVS VL: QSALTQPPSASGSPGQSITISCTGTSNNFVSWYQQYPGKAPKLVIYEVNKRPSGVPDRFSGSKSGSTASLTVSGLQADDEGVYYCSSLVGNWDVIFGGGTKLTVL | 7.57 |
| PGT-126 (antibody, V domains shown) VH: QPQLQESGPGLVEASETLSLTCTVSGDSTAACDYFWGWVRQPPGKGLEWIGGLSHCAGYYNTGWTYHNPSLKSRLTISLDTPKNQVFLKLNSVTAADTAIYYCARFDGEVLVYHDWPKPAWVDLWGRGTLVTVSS VL: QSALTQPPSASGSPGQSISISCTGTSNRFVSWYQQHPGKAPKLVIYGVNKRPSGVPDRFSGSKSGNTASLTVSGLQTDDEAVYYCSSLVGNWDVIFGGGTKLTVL | 0.196 |

Give the measured IC50 (µg/mL), pseudovirus neutralization of PGT-123 (antibody, V domains shown) VH: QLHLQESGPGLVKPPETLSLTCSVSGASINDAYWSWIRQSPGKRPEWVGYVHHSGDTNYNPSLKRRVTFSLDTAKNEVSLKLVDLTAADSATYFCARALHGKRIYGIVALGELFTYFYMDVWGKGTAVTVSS VL: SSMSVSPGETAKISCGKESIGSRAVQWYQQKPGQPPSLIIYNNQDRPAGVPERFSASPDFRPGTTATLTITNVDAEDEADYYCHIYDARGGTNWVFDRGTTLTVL .
0.402
